Here, each record is paired with measured Kd data.
Target: T1, recombinant fibronectin domain ED-B (His)6 (human, UniProt P02751 1266-1356)
T1 construct: domain: ED-B; Produced by standard procedures; immobilised on ELISA plates or on the BIAcore chip; also called recombinant ED-B; human ED-B
Assay: SPR (BIAcore), ED-B immobilised on chip, Fab in flow
Method: F1-Chips (Biacore, Sweden) were coated with about 200 RU of ED-B (30 μg/ml, 10 mmol of acetate buffer, pH 4.0) and reference flow cells with a corresponding amount of human serum albumin (20 μg/ml, 10 mmol of acetate buffer, pH 4.5) with use of standard EDC-NHS-amine-coupling chemistry. The antigen density was reduced to about 100 RU for the Fab characterization of the second maturation. […] All sensograms were evaluated with use of BIA evaluation software 3.1.
All answers are understood in nM, so give the number only.

The following binders have reported results that may help.
INSERT INTO assay_data (binder, measured_value) VALUES
  ('MOR03066 (Fab, V domains shown, Fab, L-CDR3 derivative of MOR02619) VH: QVQLQESGPGLVKPGETLSLTCTVSGGSISSYYWSWIRQAPGKGLEWIGIGHWGSTQYNPSLKGRVTISVDTSKNQFSLKLSSVTAEDTAVYYCARFFDVWGQGTLVTVSS VL: DIVLTQPPSVSGAPGQRVTISCSGSSSNIGSNTVRWYQQLPGTAPKLLIYSNNKRPSGVPDRFSGSKSGTSASLAITGLQSEDEADYYCSSYDTQVTRVFGGGTKLTVLG', 4.2),
  ('MOR03064 (Fab, V domains shown, Fab, L-CDR3 derivative of MOR02715) VH: QVQLVESGGGLVQPGGSLRLSCAASGFTFSSYGMHWVRQAPGKGLEWVSVISSSGSYIYYADSVKGRFTISRDNSKNTLYLQMNSLRAEDTAVYYCARNKVGFDVWGQGTLVTVSS VL: DIALTQPASVSGSPGQSITISCTGTSSDGGGYNTVSWYQQHPGKAPKLMIYYVHKRPSGVSNRFSGSKSGNTASLTISGLQAEDEADYYCQSWDLLAPSVVFGGGTKLTVLG', 10);

Now consider a different binder.
Documented Kd of MOR03075 (Fab, V domains shown, Fab, L-CDR3 derivative of MOR02619) VH: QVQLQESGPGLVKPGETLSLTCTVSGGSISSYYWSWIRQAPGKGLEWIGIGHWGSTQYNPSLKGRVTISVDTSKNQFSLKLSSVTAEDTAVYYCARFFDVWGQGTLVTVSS VL: DIVLTQPPSVSGAPGQRVTISCSGSSSNIGSNTVRWYQQLPGTAPKLLIYSNNKRPSGVPDRFSGSKSGTSASLAITGLQSEDEADYYCQSWDPRSFTVFGGGTKLTVLG : 2.4
